composite z-score values for the compounds below.
Biological target: Focal adhesion kinase 1 (Homo sapiens) (UniProt Q05397)
Sequence (Q05397 whole entry, looked up): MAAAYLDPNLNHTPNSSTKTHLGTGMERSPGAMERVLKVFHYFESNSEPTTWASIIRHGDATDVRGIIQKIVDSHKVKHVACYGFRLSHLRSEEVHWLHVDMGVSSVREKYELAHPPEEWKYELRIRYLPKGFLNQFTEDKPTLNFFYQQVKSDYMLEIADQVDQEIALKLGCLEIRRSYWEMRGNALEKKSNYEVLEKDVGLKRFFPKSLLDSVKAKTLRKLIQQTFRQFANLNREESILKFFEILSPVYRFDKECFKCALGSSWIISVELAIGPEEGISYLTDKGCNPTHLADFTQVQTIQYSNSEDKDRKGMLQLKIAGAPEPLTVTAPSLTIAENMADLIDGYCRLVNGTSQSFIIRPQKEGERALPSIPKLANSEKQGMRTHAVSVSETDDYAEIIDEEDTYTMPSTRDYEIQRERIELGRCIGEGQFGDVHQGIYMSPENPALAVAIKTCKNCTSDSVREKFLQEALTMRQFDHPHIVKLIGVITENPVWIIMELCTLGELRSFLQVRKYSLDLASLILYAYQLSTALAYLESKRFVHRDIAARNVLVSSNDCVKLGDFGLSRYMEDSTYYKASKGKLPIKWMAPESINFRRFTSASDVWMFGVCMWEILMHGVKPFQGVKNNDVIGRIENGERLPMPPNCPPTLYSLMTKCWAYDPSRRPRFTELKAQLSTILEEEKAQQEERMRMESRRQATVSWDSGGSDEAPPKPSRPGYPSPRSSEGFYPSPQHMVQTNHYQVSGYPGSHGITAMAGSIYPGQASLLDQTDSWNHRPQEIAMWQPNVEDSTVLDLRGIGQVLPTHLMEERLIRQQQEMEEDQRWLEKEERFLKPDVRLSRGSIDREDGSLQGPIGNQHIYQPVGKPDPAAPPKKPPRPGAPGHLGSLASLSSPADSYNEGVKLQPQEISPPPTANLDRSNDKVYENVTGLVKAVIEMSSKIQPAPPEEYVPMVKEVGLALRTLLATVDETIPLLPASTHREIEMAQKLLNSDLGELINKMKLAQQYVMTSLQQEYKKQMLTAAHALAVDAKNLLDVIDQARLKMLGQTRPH
Assay: PTK2 protein binding on printed compound slides – biochemical, small-molecule microarray, 635/667 nm fluorescence, BSA, DTT, primary screen (AID 1130);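 also: composite of spot emission at 667 nm and signal to noise over triplicate slides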
Details: 635 nm fluorescence, higher = more signal

CN(C)CCCC[C@@H]1NC(=O)[C@@H]2C[C@H](C(=O)NCc3ccc(F)cc3)[C@H](c3cccc(OCCO)c3)N2C1=O: 0.0978
CC(C)C(O)C1C=CC2C(=O)N(C)C(=O)C2N1N1CCCCC1 (stereo not drawn): 0.776

# input Fill in the recorded composite z-score for this compound, with Focal adhesion kinase 1 (Homo sapiens) (UniProt Q05397) as test system: C=CCOC(=O)[C@@H]1[C@H]2C(=O)O[C@H](c3ccccc3)[C@H](c3ccccc3)N2[C@H](c2ccc(OCCOC(=O)[C@H]3C[C@H]4C(=O)N[C@@H](CCCC[N+](C)(C)C)C(=O)N4[C@H]3c3cccc(OCCO)c3)cc2)[C@@]12C(=O)Nc1ccc(I)cc12
# output 0.163

* * *

composite z-score values for the molecules below.
Biological target: Carbonic anhydrase 2 (Homo sapiens) (UniProt P00918)
Experiment: compounds binding carbonic anhydrase 2 – biochemical, small-molecule microarray, Alexa647-labelled CAII, profiling panel (AID 1122)
Conditions: CAII-A647 binding fluorescence, higher = more signal
Give a plain numeric answer without units written out.

These recorded examples may help you get a feel for the data.
COCCOC(=O)N1C(=O)[C@@]2(c3ccccc31)[C@H](c1ccc(O)cc1)N1[C@H](c3ccccc3)[C@H](c3ccccc3)OC(=O)[C@H]1[C@@H]2C(N)=O: 0.711
[N-]=[N+]=NCc1ccccc1C[C@]1(C(N)=O)N=C(c2ccc(OCCCO)cc2)O[C@H]1c1ccccc1N=[N+]=[N-]: 0.513

Next:
# input Reported composite z-score, molecule C[C@]1(C(=O)NCC(F)(F)F)c2ccccc2C(=O)N(Cc2cc(F)cc(C(F)(F)F)c2)[C@H]1c1ccc(CO)cc1 : ____
# output 0.694

* * *

Target: NADPH oxidase 5 (Homo sapiens) (UniProt Q96PH1)
Sequence (Q96PH1 whole entry, looked up): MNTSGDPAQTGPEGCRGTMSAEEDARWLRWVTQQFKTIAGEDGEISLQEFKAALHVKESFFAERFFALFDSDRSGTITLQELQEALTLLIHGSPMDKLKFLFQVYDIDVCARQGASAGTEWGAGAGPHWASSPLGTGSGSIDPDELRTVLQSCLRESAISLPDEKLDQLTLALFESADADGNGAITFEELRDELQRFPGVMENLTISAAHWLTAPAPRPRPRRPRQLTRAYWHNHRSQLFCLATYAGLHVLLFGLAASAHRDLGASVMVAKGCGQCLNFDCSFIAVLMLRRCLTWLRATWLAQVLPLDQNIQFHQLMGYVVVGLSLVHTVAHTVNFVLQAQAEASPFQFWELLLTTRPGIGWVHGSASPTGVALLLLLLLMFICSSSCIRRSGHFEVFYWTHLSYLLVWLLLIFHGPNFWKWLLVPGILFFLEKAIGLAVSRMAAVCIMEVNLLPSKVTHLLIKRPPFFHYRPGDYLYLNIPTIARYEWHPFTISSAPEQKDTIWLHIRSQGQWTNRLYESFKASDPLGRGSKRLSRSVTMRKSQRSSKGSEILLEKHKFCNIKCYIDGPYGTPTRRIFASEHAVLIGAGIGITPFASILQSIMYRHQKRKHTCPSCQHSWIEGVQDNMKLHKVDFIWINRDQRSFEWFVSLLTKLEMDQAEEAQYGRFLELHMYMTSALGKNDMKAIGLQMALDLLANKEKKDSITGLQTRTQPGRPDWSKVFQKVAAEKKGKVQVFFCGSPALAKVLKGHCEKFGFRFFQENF
Test: compounds shifting NOX5 Amplex Red fluorescence – cell-based, HEK293-NOX5, NOX inhibitor project, primary screen (AID 1161)
Conditions: HEK293-NOX5, ionomycin, 45 min, higher = more signal
experimental-endpoint: z-score

These recorded examples may help you get a feel for the data.
CC[C@@H]1C=C(C(=O)O)[C@H](c2ccc(C(C)C)cc2)N1S(=O)(=O)c1ccc(C)cc1: -0.0711
CCOC(=O)C1=C[C@@H](C(C)(C)C)N(S(=O)(=O)c2ccc(C)cc2)[C@H]1c1ccc(Cl)c(Cl)c1: 0.263
CC(c1ccccc1)C(O)C1C=CC2C(=O)N(c3ccccc3)C(=O)C2N1Nc1ccccc1F (stereo not drawn): 0.381
C=CCN1C(=O)[C@]2(COC(c3ccc(OCCCO)cc3)=N2)Cc2ccccc21: -2.56
COCCCNC(=O)[C@@]1(Sc2ccc(C)cc2)CC(=O)N(Cc2ccccc2)[C@@H]1c1ccc(CO)cc1: 0.162
COCCOC(=O)N1C(=O)[C@@]2(c3cc(C#CC4=CCCCC4)ccc31)[C@H](c1ccc(OCCO)cc1)N1[C@H](c3ccccc3)[C@H](c3ccccc3)OC(=O)[C@H]1[C@@H]2C(=O)Nc1nc2ccccc2s1: 1.35
CCN(CC)c1ccc(N2CC=CC34O[C@@H]5/C=C\CCC(C)OC(=O)C5[C@H]3C(=O)N(CCCCCCO)[C@@H]4C2=O)cc1 (stereo partly drawn): 0.813

# input Fill in the recorded z-score for this molecule, with NADPH oxidase 5 (Homo sapiens) (UniProt Q96PH1) as test system: COc1cc(CO)cc(I)c1O[C@H]1C=C(C(=O)NCCO)C[C@@H](N(CCc2cccc(F)c2)C(=O)CCC2CCCC2)[C@@H]1O
# output -2.23
